Tested on: normal human neonatal foreskin epidermal keratinocytes (NHEK-F)
protocol-notes: Cell proliferation inhibition test
Assay type: cell-based
test-settings: Keratinocyte, 72 h, NHEK-F cells, three days incubation, ATPlite or CellTiterGlo, read-out: IC50 (concentration of the compound at which the cell count is reduced by 50%)

{"compound": "O=C(O)c1cc(Cl)ccc1Nc1cnc2c(ccn2Cc2ccccc2)c1 [Example 11]", "IC50": "10 to 100 nM"}
{"compound": "Cc1cn(CC(C)C)c2ccc(Nc3ncc(C4CC4)cc3C(=O)O)cc12 [Example 535]", "IC50": "≤ 10 nM"}
{"compound": "O=C(O)c1cc(C2CC2)cnc1Nc1ccc2c(ccn2Cc2ccc(Cl)cc2)c1 [Example 461]", "IC50": "≤ 10 nM"}
{"compound": "Cn1ccc2cc(Nc3ncc(C4CC4)cc3C(=O)O)cc(-c3cccc(F)c3)c21 [Example 465]", "IC50": "≤ 10 nM"}
{"compound": "O=C(O)c1cc(C2CC2)ccc1Nc1cccc2c1ccc(=O)n2-c1ccccc1 [Example 539]", "IC50": "≤ 10 nM"}
{"compound": "O=C(O)c1cc(C2CC2)cnc1Nc1ccc2c(-c3ccccc3)cccc2c1 [Example 177]", "IC50": "≤ 10 nM"}
{"compound": "Cc1ccc(-n2ccc3cc(Nc4ccc(Cl)cc4C(=O)O)ccc32)nn1 [Example 100]", "IC50": "100 to 1000 nM"}
{"compound": "CC(C)Cn1c(CO)cc2cc(Nc3ncc(C4CC4)cc3C(=O)O)ccc21 [Example 175]", "IC50": "100 to 1000 nM"}
{"compound": "Cn1cc(C2CC2)c2cc(Nc3ncc(C4CC4)cc3C(=O)O)ccc21 [Example 393]", "IC50": "10 to 100 nM"}
{"compound": "Cn1ccc2cc(Nc3ncc(C4CC4)cc3C(=O)O)cc(-c3ccc(-c4ccccc4)cc3)c21 [Example 191]", "IC50": "≤ 10 nM"}
{"compound": "O=C(O)c1cc(Cl)ccc1Nc1ccc2c(ccn2-c2ccccc2F)c1 [Example 335]", "IC50": "≤ 10 nM"}
{"compound": "O=C(O)c1cc(C2CC2)cnc1Nc1cc2ccn(Cc3ccccc3)c2cc1F [Example 552]", "IC50": "≤ 10 nM"}
{"compound": "O=C(O)c1cc(Cl)ccc1Nc1ccc2c(ccn2CC2CC2)c1 [Example 96]", "IC50": "10 to 100 nM"}
{"compound": "Cn1ccc2cc(Nc3ncc(C4CC4)cc3C(=O)O)cc(-c3ccc(Cl)cc3)c21 [Example 490]", "IC50": "≤ 10 nM"}
{"compound": "CC(C)c1cc(Nc2ncc(C3CC3)cc2C(=O)O)cc2ccn(C)c12 [Example 411]", "IC50": "10 to 100 nM"}
{"compound": "O=C(O)c1cc(C2CC2)cnc1Nc1ccc2c(ccn2C(=O)c2ccccc2)c1 [Example 575]", "IC50": "10 to 100 nM"}
{"compound": "CC(C)c1ccc(Nc2ccc3c(ccn3Cc3ccccc3)c2)c(C(=O)O)c1 [Example 114]", "IC50": "≤ 10 nM"}
{"compound": "O=C(O)c1cc(C2CC2)cnc1Nc1cccc2c(-c3ccccc3)cccc12 [Example 367]", "IC50": "≤ 10 nM"}
{"compound": "O=C(O)c1cc(C2CC2)cnc1Nc1ccc2c(ccn2CC2CCCCO2)c1 (centres unmarked) [Example 414]", "IC50": "10 to 100 nM"}
{"compound": "COC/C=C/c1cccc(Cn2ccc3cc(Nc4ncc(C5CC5)cc4C(=O)O)ccc32)c1 [Example 508]", "IC50": "≤ 10 nM"}
{"compound": "Cc1cc(Nc2ncc(C3CC3)cc2C(=O)O)cc2ccn(Cc3ccccc3)c12 [Example 629]", "IC50": "≤ 10 nM"}
{"compound": "O=C(O)c1cc(C2CC2)cnc1Nc1ccc2cccc(-c3ccccc3)c2c1 [Example 179]", "IC50": "≤ 10 nM"}
{"compound": "O=C(O)c1cc(Cl)ccc1Nc1ccc2c(c1)oc(=O)n2Cc1ccccc1 [Example 61]", "IC50": "10 to 100 nM"}
{"compound": "COCCOc1cccc(Cn2ccc3cc(Nc4ccc(Cl)cc4C(=O)O)ccc32)c1 [Example 298]", "IC50": "≤ 10 nM"}
{"compound": "COCCOc1cccc(Cn2ccc3cc(Nc4ncc(C5CC5)cc4C(=O)O)ccc32)c1 [Example 506]", "IC50": "≤ 10 nM"}
{"compound": "CC(C)c1cnc(Nc2ccc3c(ccn3Cc3ccccc3)c2)c(C(=O)O)c1 [Example 379]", "IC50": "10 to 100 nM"}
{"compound": "O=C(O)c1cc(C2CC2)cnc1Nc1ccc2c(c1)cc(-c1ccccc1)n2Cc1ccccc1 [Example 387]", "IC50": "10 to 100 nM"}
{"compound": "O=C(O)c1cc(Cl)ccc1Nc1ccc2c(c1)CN(c1ccccc1)C2=O [Example 281]", "IC50": "100 to 1000 nM"}
{"compound": "CC(C)n1ccc2c(Nc3ncc(C4CC4)cc3C(=O)O)cccc21 [Example 435]", "IC50": "10 to 100 nM"}
{"compound": "Cn1ccc2cc(Nc3ncc(C4CC4)cc3C(=O)O)cc(-c3cncnc3)c21 [Example 591]", "IC50": "100 to 1000 nM"}
{"compound": "O=C(O)c1cc(Cl)ccc1Nc1ccc2c(ccn2Cc2cccc(O)c2)c1 [Example 17]", "IC50": "≤ 10 nM"}
{"compound": "CCn1ccc2cc(Nc3ncc(C4CC4)cc3C(=O)O)ccc21 [Example 121]", "IC50": "100 to 1000 nM"}
{"compound": "O=C(O)c1cc(C2CC2)cnc1Nc1cccc2c1ccn2CC1CC1 [Example 437]", "IC50": "10 to 100 nM"}
{"compound": "Cn1ccc2cc(Nc3ncc(C4CC4)cc3C(=O)O)cc(C3CCCCC3)c21 [Example 607]", "IC50": "≤ 10 nM"}
{"compound": "O=C(O)c1cc(C2CC2)cnc1Nc1ccc2c(-c3ccccc3)ncnc2c1 [Example 529]", "IC50": "10 to 100 nM"}
